ASSAY_NOTES: in vitro
PARTICULARS: mouse
MEASURE: fraction unbound
API note: the answer field is a bare number with no unit suffix.

Q: Request the reported fraction unbound associated with CCc1nc2ncc(C)cn2c1C(=O)NCc1ccc(N2CCN(S(=O)(=O)C(F)(F)F)C=N2)c(F)c1
Result: 0.0245

====

ASSAY_NOTES: in vivo
PARTICULARS: rat, po, 5 mg/kg, AUC0-inf
MEASURE: AUC0-inf

Q: Tell me the measured AUC0-inf of CCc1nc2ncc(C)cn2c1C(=O)NCc1ccc(N2CCN(S(=O)(=O)C(F)(F)F)C=N2)c(F)c1 [Compound 161] , please.
Result: 10900 ng·h/mL

====

Tested on: Mycobacterium tuberculosis strain EH4.0 expressing green-fluorescent protein (GFP)
ASSAY_NOTES: microbe, parasite or virus in culture
Type: cell-based
PARTICULARS: 168 h, read-out: pIC50 (converted)
Reported IC50 values follow for various compounds
# number only, unit nM dropped from output

> print(dat)
                            chemical.string  units.symbol  meas.value
1  O=C(NCc1ccc(N2CCN(S(=O)(=O)C(F)(F)F)C=N2)cc1)c1c(C(F)(F)F)nc2ccccn12            nM        9.55
2  Cc1nc2sc(Cl)cn2c1C(=O)NCc1ccc(N2CCN(S(=O)(=O)C(F)(F)F)C=N2)c(F)c1            nM        7.59

Q: Dear colleague, I am looking for the recorded IC50 of the following compound: CCc1nc2c(F)cc(Cl)cn2c1C(=O)NCc1ccc(N2CCN(S(=O)(=O)C(F)(F)F)C(OC)=N2)c(F)c1
Result: 3.02

Q: What value of IC50 has been reported for the following compound? CCc1nc2ccc(Cl)cn2c1C(=O)NCc1ccc(N2CCN(C(=O)C(F)(F)F)C=N2)cc1
Result: 251

====

ASSAY_NOTES: in vitro
PARTICULARS: rat, hepatocytes
MEASURE: hepatocyte CLint (µL/min/1e6 cells)
Entry rule: numbers only, all in µL/min/1e6 cells.

Q: Name the recorded hepatocyte CLint for CCc1nc2ncc(C)cn2c1C(=O)NCc1ccc(N2CCN(S(=O)(=O)C(F)(F)F)C=N2)c(F)c1 [Compound 161] .
Result: 19

====

Test system: Mycobacterium tuberculosis strain EH4.0 expressing green-fluorescent protein (GFP)
ASSAY_NOTES: microbe, parasite or virus in culture
Format: cell-based
PARTICULARS: 168 h, read-out: pIC50 (converted)
MEASURE: IC50 (nM)
Just the number in nM, nothing appended.

Q: I'd like to know its IC50. The compound in question is O=C(NCc1ccc(N2CCN(S(=O)(=O)C(F)(F)F)C=N2)c(F)c1)c1c(C(F)(F)F)nc2ccc(Cl)cn12
Result: 10

Q: Could you tell me which IC50 is on file for CCc1nc2ccc(Cl)cn2c1C(=O)NCc1ccc(N2CCN(S(=O)(=O)C(F)(F)F)C=N2)cc1OC ?
Result: 398

Q: Given CC1=NN(c2ccc(CNC(=O)c3c(C(F)(F)F)nc4ccccn34)cc2)CCN1S(=O)(=O)C(F)(F)F , state its recorded IC50.
Result: 13.5

Q: I am curious: what IC50 value has been reported for CCc1nc2c(Cl)c(OC)ccn2c1C(=O)NCc1ccc(N2CCN(S(=O)(=O)C(F)(F)F)C=N2)cc1 ?
Result: 79.4

Q: I would be grateful if you could share the reported IC50 for COc1ccn2nc(C)c(C(=O)NCc3ccc(N4CCN(S(=O)(=O)C(F)(F)F)C=N4)cc3)c2c1 .
Result: 6.31

Q: Consider the compound shown here: O=C(NCc1ccc(N2CCN(S(=O)(=O)C(F)(F)F)C=N2)cc1)c1c(C(F)F)nc2ccccn12 What is its recorded IC50?
Result: 9.12

Q: Value lookup for IC50; key = CCc1nc2c(F)cc(C)cn2c1C(=O)NCc1cnc(N2CCN(S(=O)(=O)C(F)(F)F)C=N2)c(F)c1
Result: 6.31

====

Tested on: Mycobacterium tuberculosis strain EH4.0 expressing green-fluorescent protein (GFP)
ASSAY_NOTES: microbe, parasite or virus in culture
Type: cell-based
PARTICULARS: 168 h, read-out: pIC50 (converted)
Listed here are compounds together with their documented IC50.
Could you give me the number in nM? Just the number is fine.

> print(dat)
                            chemical.string  measure  meas.value
1  CCc1nc2cc(C)c(C)cn2c1C(=O)NCc1cnc(N2CCN(S(=O)(=O)C(F)(F)F)C=N2)c(F)c1     IC50        46.8

Q: Which value of IC50 has been reported for O=C(NCc1cnc(N2CCN(S(=O)(=O)C(F)(F)F)C=N2)c(F)c1)c1c(C(F)(F)F)nc2c(F)cccn12 in the records?
Result: 31.6

Q: Any idea what IC50 was measured for CCc1nc2nc(OC)c(F)cn2c1C(=O)NCc1ccc(N2CCN(S(=O)(=O)C(F)(F)F)C=N2)c(F)c1 ?
Result: 126

Q: Looking for the measured IC50 of CCc1nc2cc(OC)c(OC)cn2c1C(=O)NCc1ccc(N2CCN(S(=O)(=O)C(F)(F)F)C(OC)=N2)c(F)c1 , can you help?
Result: 81.3

Q: // lookup IC50 for CCc1nc2nc(OC)ccn2c1C(=O)NCc1ccc(N2CCN(S(=O)(=O)C(F)(F)F)C=N2)c(F)c1
Result: 15.8

Q: # query: IC50 of entry Cc1cc(F)c2nc(C(F)(F)F)c(C(=O)NCc3cnc(N4CCN(S(=O)(=O)C(F)(F)F)C=N4)c(F)c3)n2c1
Result: 31.6

Q: Recorded IC50 for COC1=NN(c2ccc(CNC(=O)c3c(C(F)(F)F)nc4ccc(Cl)cn34)cc2F)CCN1S(=O)(=O)C(F)(F)F , please?
Result: 14.8

====

ASSAY_NOTES: in vivo
PARTICULARS: rat, po, 5 mg/kg, Cmax
MEASURE: Cmax (ng/mL)
Kindly provide the numeric value in ng/mL only, without the unit symbol.

Q: Any idea what Cmax was measured for CCc1nc2ncc(C)cn2c1C(=O)NCc1ccc(N2CCN(S(=O)(=O)C(F)(F)F)C=N2)c(F)c1 ?
Result: 1230

====

ASSAY_NOTES: in vivo
PARTICULARS: rat, po, 5 mg/kg, Tmax
Procedure: Oral Bioavailability of Compound 161 in Rat Compound 161 was administer PO in rat (5 mg/kg, PEG4000 (sol.), 0.5 w/v Methocel (susp.) and the following results were obtained for the solution and suspension.
MEASURE: Tmax
Answer format: number, then unit.

Q: Recorded Tmax for CCc1nc2ncc(C)cn2c1C(=O)NCc1ccc(N2CCN(S(=O)(=O)C(F)(F)F)C=N2)c(F)c1 [Compound 161] , please?
Result: 4 h

====

System: Mycobacterium tuberculosis strain EH4.0 expressing green-fluorescent protein (GFP)
ASSAY_NOTES: microbe, parasite or virus in culture
Format: cell-based
PARTICULARS: 168 h, read-out: pIC50 (converted)
MEASURE: IC50 (nM)
Field format: number, assumed nM, no unit text.

Use these answered entries as a reference point.
> print(dat)
                            chemical.string  measure  meas.value
1  CCc1nc2cc(C)c(Cl)cn2c1C(=O)NCc1ccc(N2CCN(S(=O)(=O)C(F)(F)F)C=N2)cc1     IC50          24
2  CCc1nc2cc(OC)c(C)cn2c1C(=O)NCc1ccc(N2CCN(S(=O)(=O)C(F)(F)F)C=N2)c(F)c1     IC50        25.7
3  CCc1nc2ccc(Cl)cn2c1C(=O)NCc1cnc(N2CCN(S(=O)(=O)C(F)(F)F)C=N2)c(F)c1     IC50        4.68
4  CCc1nc2cc(Cl)c(OC)cn2c1C(=O)NCc1ccc(N2CCN(S(=O)(=O)C(F)(F)F)C(OC)=N2)cc1     IC50        39.8
5  CCc1nc2sc(Cl)cn2c1C(=O)NCc1ccc(N2CCN(S(=O)(=O)C(F)(F)F)C=N2)c(F)c1     IC50        7.24

Q: Reported IC50, compound CCc1nc2cc(C)c(Cl)cn2c1C(=O)NCc1ccc(N2CCN(S(=O)(=O)C(F)(F)F)C(OC)=N2)c(F)c1 : ____
Result: 8.32

Q: GET /values?readout=IC50&item= CCc1nc2ccc(Cl)cn2c1C(=O)NCc1ccc(N2CCN(S(=O)(=O)C(F)(F)F)C=N2)c(C)c1
Result: 7.94

Q: What does the record list as IC50 for CCc1nc2ncc(C)cn2c1C(=O)NCc1ccc(N2CCN(S(=O)(=O)C(F)(F)F)C(OC)=N2)c(F)c1 ?
Result: 0.891

Q: Entry CCc1nc2ccc(C#N)cn2c1C(=O)NCc1ccc(N2CCN(S(=O)(=O)C(F)(F)F)C=N2)cc1 has what IC50?
Result: 158

Q: Look up IC50 for this compound: COC1=NN(c2ccc(CNC(=O)c3c(C(F)F)nc4ccccn34)cc2F)CCN1S(=O)(=O)C(F)(F)F
Result: 1.2

Q: So what's the measured IC50 for this one? CCc1nc2ccc(Cl)cn2c1C(=O)NCc1ccc(N2CCN(S(C)(=O)=O)C=N2)cc1
Result: 31.6

Q: State the recorded IC50 for this entry: CCc1nc2nc3c(cn2c1C(=O)NCc1ccc(N2CCN(S(=O)(=O)C(F)(F)F)C=N2)c(F)c1)OCCN3C
Result: 66.1

Q: Which IC50 reading was recorded for the compound CCc1nc2c(F)cc(C)cn2c1C(=O)NCc1ccc(N2CCNC=N2)c(F)c1 ?
Result: 93.3

Q: Look at this compound and give its reported IC50. COC1=NN(c2ccc(CNC(=O)c3c(C(F)(F)F)nc4n3CCCC4)cc2)CCN1S(=O)(=O)C(F)(F)F
Result: 33.1

Q: Form field: reported IC50 of CCc1nc2cc(F)c(Cl)cn2c1C(=O)NCc1ccc(N2CCN(S(=O)(=O)C(F)(F)F)C=N2)c(F)c1
Result: 1.38
